Biological target: T1, human IL-17A (construct not stated) (human, UniProt Q16552 24-155, limits assumed)
T1 construct: also called huIL-17A; human IL-17A biotin
T1 sequence: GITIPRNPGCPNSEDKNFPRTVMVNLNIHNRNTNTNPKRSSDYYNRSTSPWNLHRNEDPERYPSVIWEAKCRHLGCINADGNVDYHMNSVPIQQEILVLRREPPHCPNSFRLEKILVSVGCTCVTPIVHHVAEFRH
Test: ELISA on coated huIL-17A, crude Fab extract, wash of at least 3 h
measure name: Off-rate ELISA (normalized to XAB1 Fab)

[
  {
    "binder": "MB458 (Fab, V domains shown, heavy chain C-terminal Flag tag) VH: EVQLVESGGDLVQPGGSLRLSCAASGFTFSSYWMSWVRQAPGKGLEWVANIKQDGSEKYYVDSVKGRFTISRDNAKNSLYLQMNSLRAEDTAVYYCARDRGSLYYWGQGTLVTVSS VL: AIQLTQSPSSLSASVGDRVTITCRPSQGIWYQLAWYQQKPGKAPKLLIYDASSLENGVPSRFSGSGSGTDFTLTISSLQPEDFATYYCQQFNSYPLTFGGGTKVEIK",
    "measure name": "Off-rate ELISA (normalized to XAB1 Fab)",
    "observed": "33 ratio to XAB1 Fab"
  },
  {
    "binder": "MB435 (Fab, V domains shown, heavy chain C-terminal Flag tag) VH: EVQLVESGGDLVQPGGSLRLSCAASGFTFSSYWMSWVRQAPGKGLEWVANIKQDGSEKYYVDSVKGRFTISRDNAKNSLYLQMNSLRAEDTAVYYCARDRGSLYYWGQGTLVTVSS VL: AIQLTQSPSSLSASVGDRVTITCRPSQGINWELAWYQQKPGKAPKLLIYDASSLENGVPSRFSGSGSGTDFTLTISSLQPEDFATYYCQQFNSYPLTFGGGTKVEIK",
    "measure name": "Off-rate ELISA (normalized to XAB1 Fab)",
    "observed": "44.7 ratio to XAB1 Fab"
  }
]
